# Test system: LOX IMVI melanoma
// allowed return values: Y = active, N = inactive

For orientation, consider the following solved cases.
O=C(N/N=C/c1ccc([N+](=O)[O-])cc1)c1ccccc1Nc1ccnc(C(F)(F)F)c1 :: N
COC(=O)[C@@H](C)C[C@H](Cc1ccc(F)cc1)NC(=O)c1csc([C@@H](C[C@H](C(C)C)N(C)C(=O)[C@@H](NC(=O)[C@H]2CCCCN2C)C2CC2)OC(C)=O)n1 :: Y
COc1cc(-c2n/c(=C\c3c(O)[nH]c4ccccc34)cc3c2=Nc2ccccc2-3)ccc1F :: N
C#Cc1cccc(Nc2nc(C)nc3cc(NC(=O)CCl)ccc23)c1 :: Y
O=C1NN(C(=O)c2ccccc2)C(c2ccc(Cl)c(Cl)c2)=C/C1=C\c1ccccc1[N+](=O)[O-] :: N

Record request — test call for CC[C@H](C)[C@H](NC(=O)c1ncccn1)C(=O)N(C)[C@H](C[C@@H](OC(C)=O)c1nc(C(=O)N[C@@H](Cc2ccccc2)C[C@H](C)C(=O)OC)cs1)C(C)C
N

----------
# TGI annotations
# Tested on: TK-10 renal
# protocolSummary: NCI tumour cell line growth inhibition, 48 h

Solved cases (5 shown):
CCOC(=O)C1=NN(c2ccc(C)cc2)C2(c3ccccc3)C=C(c3ccccc3)N(C)CCN12 (stereo not given) :: > 100 µM
COc1ccc(Cc2ccc3[nH]c(=O)cc(C)c3c2)cc1S(=O)(=O)O :: > 100 µM
Oc1ccc(Br)cc1C=NC1CCCCC1 :: > 100 µM
O=c1c2ccccc2ncn1COCc1ccccc1 :: > 100 µM
O=c1cc(-c2ccccc2)oc2c(O)c(O)ccc12 :: 71.1 µM

# get_value(readout='TGI', item= COc1c(O)cc2c(c1O)C(=O)C(Cc1ccc(O)cc1)CO2 (stereo not given) )
> 100 µM

Now give it for C1=C2C3=[N+](CCCC3)CC2Cc2sccc21 (stereo not given) too.
> 100 µM

Now give it for CC1(C)CC[C@]2(C)[C@@H](O)C[C@]3(C)C(=CC[C@@H]4[C@@]5(C)CC[C@H](O)C(C)(C)[C@@H]5CC[C@]43C)[C@@H]2C1 too.
93.2 µM

Now give it for N#C[S-].[Ce+3].c1ccc(-c2ccccn2)nc1.c1ccc(-c2ccccn2)nc1.c1ccc(-c2ccccn2)nc1 too.
97.6 µM

Now give it for CCOC(=O)C(=CNc1ccc(S(N)(=O)=O)cc1)C(=O)OCC too.
> 100 µM

Now give it for CCCCC1Nc2ccccc2-c2ccnc(Cl)c21 (stereo not given) too.
> 100 µM

Now give it for CC(C)CC(C#CCCOC(=O)c1ccccc1)OC(=O)c1ccccc1 (stereo not given) too.
> 10 µM

Now give it for CC[C@H](C)[C@H](NC(=O)c1ncccn1)C(=O)N(C)[C@H](C[C@@H](OC(C)=O)c1nc(C(=O)N[C@@H](Cc2ccccc2)C[C@H](C)C(=O)OC)cs1)C(C)C too.
> 25 µM

Now give it for O=C(O)c1nn(-c2ccc(Cl)cc2)c2c1C(=O)c1ccccc1C2=O too.
> 100 µM

Now give it for COC(=O)[C@@H](C)C[C@H](Cc1ccc(F)cc1)NC(=O)c1csc([C@@H](C[C@H](C(C)C)N(C)C(=O)[C@@H](NC(=O)[C@H]2CCCCN2C)C2CC2)OC(C)=O)n1 too.
> 25 µM

Now give it for Cn1c2ccccc2c2c3c(c4c5ccccc5n(C)c4c21)C(=O)N(Cc1ccccc1)C3=O too.
> 100 µM

Now give it for CCCCSC1CCSc2c1ccc1ccccc21 (stereo not given) too.
> 100 µM

Now give it for Cc1ccc2c(ccc3ncc(CNc4ccc(NS(C)(=O)=O)cc4)c32)[nH]1 too.
> 100 µM

Now give it for C/C(CC(O)(C(F)(F)F)C(F)(F)F)=N\NC(N)=S too.
> 10 µM

Now give it for CCC(CO)Nc1nc(NCc2ccccc2)c2n[nH]c(C(C)C)c2n1 (stereo not given) too.
33.1 µM

----------
# System: OVCAR-8 ovarian
# protocolSummary: NCI tumour cell line growth inhibition, 48 h
assayReadout: GI50

Solved cases (2 shown):
N[C@@H](Cc1c[nH]c2ccccc12)C(=O)NC1CCN(Cc2c[nH]c3ccc(Cl)cc23)CC1 :: 15.1 µM
C=C[C@@H]1CCC/C=C/[C@@H]2C[C@H](O)C[C@H]2[C@H](O)/C=C/C(=O)O1 :: 0.44 µM

# get_value(readout='GI50', item= CCCCNC(=O)Oc1ccc(/C(=C(\C)c2ccc(OC)cc2)c2ccc(OCCN3CCCCC3)cc2)cc1 )
3.4 µM

Now give it for C=C(C)[C@@H]1C/C=C(/COC(C)=O)CC[C@H]2O[C@@]2(C)CC/C=C(\C)CC1 too.
> 100 µM

Now give it for O=c1oc2ccc(F)cc2c(=O)n1-c1ccc(I)cc1F too.
0.872 µM

Now give it for COc1nc2c(c(=O)n1C)CN(c1ccccc1)C(=O)CN2C too.
74.5 µM

Now give it for CC1(C)N=C(N)N=C(N)N1c1cccc(CCCCc2ccc(Cl)c(S(=O)(=O)F)c2)c1 too.
9.28 µM

Now give it for Cc1cc2[nH]c(=O)c3c4ncccc4cn3c2cc1C too.
2.89 µM

Now give it for COc1cccc(C2SC(C)C(=O)N2NC(=O)C(O)c2ccccc2)c1 (stereo not given) too.
> 100 µM

Now give it for CC(=O)CCc1ccc(Oc2c3ccccc3nc3occc23)cc1 too.
15.7 µM

----------
# Tested on: HCC-2998 colon
# protocolSummary: NCI tumour cell line growth inhibition, 48 h
assayReadout: GI50

Solved cases (2 shown):
C[C@]1(c2nc3c(C(N)=O)cccc3[nH]2)CCCN1 :: > 100 µM
COC(=O)[C@@H](C)C[C@H](Cc1ccc(F)cc1)NC(=O)c1csc([C@@H](C[C@H](C(C)C)N(C)C(=O)[C@@H](NC(=O)[C@H]2CCCCN2C)C2CC2)OC(C)=O)n1 :: 2.48 µM

# context switch: different compound, same GI50
Provide the documented GI50 with HCC-2998 colon as the system for COc1ccc2c(c1)C(=O)/C(=C/c1ccc(O)cc1)O2
17.3 µM

----------
# Tested on: PC-3 prostate
# protocolSummary: NCI tumour cell line growth inhibition, 48 h
# GI50 annotations

Solved cases (6 shown):
O=C(N/N=C\c1ccc(N(CCCl)CCCl)cc1)c1cccnc1 :: 65.4 µM
COc1cc(/C=C2\C[C@H]3[C@@H]4CC=C5C[C@@H](O)CC[C@]5(C)[C@H]4CC[C@]3(C)[C@H]2O)ccc1OCCN1CCCCC1 :: 1.03 µM
CC(=O)CCc1ccc(Oc2c3ccccc3nc3occc23)cc1 :: 14 µM
Cn1cnc(SC2=CC(=O)C=C3S[C@H]4C[C@@]23c2c(c(O)c3c5c2=NCCC=5C=N3)N4)c1CC(N)C(=O)O (some centres undefined) :: 13.4 µM
COc1ccc2cc(C(=O)N3CCC([C@@H](C)C(=O)NCc4ccc5c(c4)OCO5)CC3)[nH]c2c1 :: > 100 µM
CCC(CO)Nc1nc(NCc2ccccc2)c2n[nH]c(C(C)C)c2n1 (centres undefined) :: 7.01 µM

Provide the documented GI50 with PC-3 prostate as the system for OCC#Cc1ccccc1C#Cc1ccc(C#Cc2ccccc2C#CCO)cc1
30.7 µM

Now give it for CCOc1ccc(Nc2ccnc3cc(Cl)ccc23)cc1 too.
> 100 µM

Now give it for CCCCCCCC(=O)Nc1nc2[nH]c(CN3CCN(Cc4cccc(I)c4)CC3)c(CN3CCN(Cc4cccc(I)c4)CC3)c2c(=O)[nH]1 too.
0.837 µM

----------
# Test system: HCT-15 colon
# protocolSummary: NCI tumour cell line growth inhibition, 48 h
# TGI annotations

Solved cases (5 shown):
C#Cc1cccc(Nc2nc(C)nc3cc(NC(=O)CCl)ccc23)c1 :: 2.64 µM
COc1ccc2c(c1)/C(=C\c1c(-c3ccccc3)nc3sccn13)C(=O)N2 :: > 35.6 µM
CCCNC(=O)Cn1c2c(c3ccccc31)CCCC2 :: > 100 µM
CC(=O)OCCCCn1nncc1Cn1ccc(=O)n(Cc2cnnn2CCCCOC(C)=O)c1=O :: > 100 µM
COc1c(C)c(C/C=C(\C)CC/C=C(\C)CC/C=C(\C)CC/C=C(\C)CCC=C(C)C)c(OC)c(OC)c1OC :: > 100 µM

Provide the documented TGI with HCT-15 colon as the system for Fc1ccccc1-c1cc(=S)c2cc3c(cc2[nH]1)OCO3
> 100 µM

Now give it for CN1/C(=C\N=O)C(C)(C)N(O)C1(C)C too.
> 100 µM

Now give it for CCCCCCCCCCCCCCCCCC1=NC(C)(C)CN1C(C)(C)CO too.
3.16 µM

Now give it for Cc1ccc(S(=O)(=O)NC(Cc2ccccc2)C(=O)CCl)cc1 (stereo not drawn) too.
31.6 µM

Now give it for O=P(O)(O)c1ccc2c(c1)OCCOCCOCCOCCO2 too.
> 100 µM

Now give it for Cc1ccc(NC(=O)CCc2nnc3s/c(=C\C=C\c4ccccc4)c(=O)n23)cc1 too.
> 100 µM

Now give it for CON1C(=O)C2(CCCCC2)C(=O)C12C=CC(C)CC2 (stereo not drawn) too.
> 100 µM

Now give it for Cc1ccccc1SC(/C=C/NNC1=NC(c2ccccc2)C(c2ccccc2)=NN1)c1ccccc1 (stereo not drawn) too.
> 100 µM

Now give it for Cc1cn(C(CO)OC(CO)CN(O)C2C3CC4CC(C3)CC2C4)c(=O)[nH]c1=O (stereo not drawn) too.
> 100 µM

Now give it for C1=C2C3=[N+](CCCC3)CC2Cc2sccc21 (stereo not drawn) too.
> 100 µM

Now give it for CC1(C)C(CBr)=[N+]([O-])C(C)(C)N1O too.
> 8.12 µM
